All values here come from PubChem BioAssay (EPA / NIEHS).

Measured Target: Nuclear respiratory factor 1 (Homo sapiens) (UniProt Q16656)
Sequence (Q16656 whole entry, looked up): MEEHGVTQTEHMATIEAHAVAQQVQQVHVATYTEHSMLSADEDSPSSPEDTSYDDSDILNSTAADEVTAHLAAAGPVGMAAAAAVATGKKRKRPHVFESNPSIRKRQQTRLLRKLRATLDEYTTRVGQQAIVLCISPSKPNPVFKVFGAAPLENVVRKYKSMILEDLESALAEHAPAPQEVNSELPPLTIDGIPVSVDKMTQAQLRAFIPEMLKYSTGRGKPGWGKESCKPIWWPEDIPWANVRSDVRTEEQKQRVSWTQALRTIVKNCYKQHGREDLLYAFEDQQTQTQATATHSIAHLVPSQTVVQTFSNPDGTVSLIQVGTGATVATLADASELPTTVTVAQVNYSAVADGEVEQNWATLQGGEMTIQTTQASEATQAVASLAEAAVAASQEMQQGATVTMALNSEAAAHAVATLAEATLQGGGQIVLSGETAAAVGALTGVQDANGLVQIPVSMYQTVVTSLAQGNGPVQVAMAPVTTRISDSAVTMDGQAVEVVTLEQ
Test Method Notes: ATG_NRF1_CIS: Attagene CIS-FACTORIAL HepG2 Assay for human Nuclear Respiratory Factor 1 (NRF1) Orphan Gene (AID 2282987)
Condition Description: HepG2 NRF1 cis-element reporter, Attagene multiplex; actives raise or lower the signal
Calls of active or inactive are those of the source. Rule for the calls: active = hit-call score of the fitted dose curve at least 0.9, where 1 is the maximum; inactive = score below 0.9.
Classes used: TRUE for active, FALSE for inactive

>  <Molecule>
CCCCCC/C=C\CCCCCCCC(=O)O

>  <Label Value>
FALSE

$$$$
>  <Molecule>
CCCCCCCCCCCSCC(=O)O

>  <Label Value>
TRUE

$$$$
>  <Molecule>
Cc1ccc(N)c([N+](=O)[O-])c1

>  <Label Value>
FALSE

$$$$
>  <Molecule>
CC(=O)OCC(=O)[C@@]12N=C(C)O[C@@H]1C[C@H]1[C@@H]3CCC4=CC(=O)C=C[C@]4(C)[C@H]3[C@@H](O)C[C@@]12C

>  <Label Value>
FALSE

$$$$
>  <Molecule>
CCOC(=O)N1CCC(=C2c3ccc(Cl)cc3CCc3cccnc32)CC1

>  <Label Value>
FALSE

$$$$
>  <Molecule>
O=C(O)CC(C(=O)O)C(CC(=O)O)C(=O)O (configuration not stated)

>  <Label Value>
FALSE

$$$$
>  <Molecule>
CC(=O)Nc1ccc2c(c1)Cc1cc(NC(C)=O)ccc1-2

>  <Label Value>
FALSE

$$$$
>  <Molecule>
CO[Si](CCC1CCC2OC2C1)(OC)OC (configuration not stated)

>  <Label Value>
FALSE

$$$$
>  <Molecule>
CC(=O)c1ccc2c(c1)CCCC2

>  <Label Value>
FALSE

$$$$
>  <Molecule>
[Cl][In]([Cl])[Cl]

>  <Label Value>
FALSE

$$$$
>  <Molecule>
CCN(CCO)c1cccc(C)c1

>  <Label Value>
FALSE

$$$$
>  <Molecule>
CC1=NC(C)OC1C (configuration not stated)

>  <Label Value>
FALSE

$$$$
>  <Molecule>
O=c1cc[nH]c(=S)[nH]1

>  <Label Value>
FALSE

$$$$
>  <Molecule>
O=C(Oc1ccccc1)c1ccc2ccccc2c1O

>  <Label Value>
FALSE

$$$$
>  <Molecule>
O=c1cc(-c2ccccc2)oc2ccccc12

>  <Label Value>
FALSE

$$$$
>  <Molecule>
CC1=CC[C@H](C(C)C)C=C1

>  <Label Value>
FALSE

$$$$
>  <Molecule>
C1=Cc2ccccc2C1

>  <Label Value>
FALSE

$$$$
